Biological target: Glutamate receptor ionotropic, AMPA (Rattus norvegicus, UniProt P19490+P19491+P19492+P19493)
OUTCOME_MEASURE: Ki (nM)

[
  {
    "MOLECULE": "O=[N+]([O-])c1cc2nc(O)c(O)nc2cc1-n1cnc(-c2ccccc2)c1",
    "RECORDED_MEASUREMENT": 230
  },
  {
    "MOLECULE": "O=[N+]([O-])c1cc2nc(O)c(O)nc2cc1-n1cncn1",
    "RECORDED_MEASUREMENT": 240
  },
  {
    "MOLECULE": "O=c1[nH]c2cc(-n3ccnc3)c([N+](=O)[O-])cc2[nH]c1=O [YM-90K]",
    "RECORDED_MEASUREMENT": 84
  },
  {
    "MOLECULE": "O=[N+]([O-])c1cn(-c2cc3nc(O)c(O)nc3cc2[N+](=O)[O-])cn1",
    "RECORDED_MEASUREMENT": 100
  },
  {
    "MOLECULE": "Oc1nc2ccc(-n3ccnc3)cc2nc1O",
    "RECORDED_MEASUREMENT": 1600
  }
]

Reference source for all entries: ChEMBL document CHEMBL1127329
